Reference source for all entries: ChEMBL document CHEMBL1153290

# study target: UniProt:P04626
# experiment description: Inhibition of ErbB2 phosphorylation in IGF1 and EGF-stimulated human N87 cells pretreated for 6 hrs before IGF1 and EGF stimulation by ELISA
pEC50: −log10 of the molar value.
Entry flag: 1 if pEC50 reaches 6; 0 if it does not.

>>> print(df.to_string())
                                smiles_data    study_target  qualitative_label
0  CCOC(=O)N1CCN([C@H]2CC[C@H](n3nc(-c4ccc5nc(Cc6ccccc6OC)[nH]c5c4)c4c(N)ncnc43)CC2)CC1  UniProt:P04626                  0
1  COCCCN1CCN([C@H]2CC[C@H](n3nc(-c4ccc5nc(Cc6ccccc6OC)[nH]c5c4)c4c(N)ncnc43)CC2)CC1  UniProt:P04626                  1
2  COc1ccccc1Cc1nc2ccc(-c3nn([C@H]4CC[C@H](N5CCNCC5)CC4)c4ncnc(N)c34)cc2[nH]1  UniProt:P04626                  1
3  COc1ccccc1Cc1nc2ccc(-c3nn([C@H]4CC[C@H](N5CCN(C(=O)N(C)C)CC5)CC4)c4ncnc(N)c34)cc2[nH]1  UniProt:P04626                  0
4  COc1ccccc1Cc1nc2ccc(-c3nn([C@H]4CC[C@H](N5CCN(CC6CC6)CC5)CC4)c4ncnc(N)c34)cc2[nH]1  UniProt:P04626                  1

* * *

# study target: UniProt:P08069
# Sequence (P08069 31-736 limits assumed): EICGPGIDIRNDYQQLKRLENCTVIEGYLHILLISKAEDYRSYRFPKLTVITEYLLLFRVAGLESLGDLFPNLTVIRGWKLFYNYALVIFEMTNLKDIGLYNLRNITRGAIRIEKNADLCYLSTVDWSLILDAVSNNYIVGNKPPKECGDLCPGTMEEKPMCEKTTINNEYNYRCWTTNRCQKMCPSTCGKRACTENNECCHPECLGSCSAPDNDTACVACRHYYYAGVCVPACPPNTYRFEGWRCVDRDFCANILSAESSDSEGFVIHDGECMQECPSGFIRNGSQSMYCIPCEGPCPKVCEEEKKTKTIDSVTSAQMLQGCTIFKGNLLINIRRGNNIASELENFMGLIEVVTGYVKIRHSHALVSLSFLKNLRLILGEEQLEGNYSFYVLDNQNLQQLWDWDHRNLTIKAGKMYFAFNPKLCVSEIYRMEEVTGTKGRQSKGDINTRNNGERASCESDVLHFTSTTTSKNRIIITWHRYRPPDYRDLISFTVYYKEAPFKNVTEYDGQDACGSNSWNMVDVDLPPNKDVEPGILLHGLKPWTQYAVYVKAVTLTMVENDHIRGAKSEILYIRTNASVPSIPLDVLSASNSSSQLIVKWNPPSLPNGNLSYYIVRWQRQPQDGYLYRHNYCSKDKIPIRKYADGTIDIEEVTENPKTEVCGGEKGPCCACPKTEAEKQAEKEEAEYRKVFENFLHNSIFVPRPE
# Sequence (P08069 741-1367 limits assumed): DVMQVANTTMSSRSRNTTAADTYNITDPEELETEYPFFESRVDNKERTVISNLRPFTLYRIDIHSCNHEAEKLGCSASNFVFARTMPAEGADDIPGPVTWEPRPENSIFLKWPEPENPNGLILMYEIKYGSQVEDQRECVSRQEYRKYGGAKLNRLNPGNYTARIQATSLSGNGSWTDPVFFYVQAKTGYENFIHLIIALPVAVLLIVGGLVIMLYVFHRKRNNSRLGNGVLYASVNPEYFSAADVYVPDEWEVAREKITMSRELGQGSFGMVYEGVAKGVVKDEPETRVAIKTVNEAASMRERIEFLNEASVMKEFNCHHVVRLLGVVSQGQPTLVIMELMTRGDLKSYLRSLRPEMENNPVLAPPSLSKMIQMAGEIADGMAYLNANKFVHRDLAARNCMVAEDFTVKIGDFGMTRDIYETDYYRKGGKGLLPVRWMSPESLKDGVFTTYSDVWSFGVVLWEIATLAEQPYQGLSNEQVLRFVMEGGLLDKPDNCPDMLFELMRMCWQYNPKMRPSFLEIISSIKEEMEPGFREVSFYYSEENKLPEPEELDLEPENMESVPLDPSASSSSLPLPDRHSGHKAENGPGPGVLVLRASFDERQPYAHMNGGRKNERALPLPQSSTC
# experiment description: Inhibition of IGF1R phosphorylation in IGF1 and EGF-stimulated human MiaPaCa2 cells pretreated for 6 hrs before IGF1 and EGF stimulation by ELISA
pEC50: −log10 of the molar value.
Parameter pEC50: see the listing below.
endpoint: pEC50

In [3]: df
Out[3]:
                                smiles_data  observed_value
0  COc1ccccc1Cc1nc2ccc(-c3nn([C@H]4CC[C@H](N5CCN(CC6CC6)CC5)CC4)c4ncnc(N)c34)cc2[nH]1            6.72
1  COc1ccccc1Cc1nc2ccc(-c3nn([C@H]4CC[C@H](N5CCN(C(C)=O)CC5)CC4)c4ncnc(N)c34)cc2[nH]1            6.84
2  COc1ccccc1Cc1nc2ccc(-c3nn([C@H]4CC[C@H](N5CCNCC5)CC4)c4ncnc(N)c34)cc2[nH]1            6.15
3  COc1ccccc1Cc1nc2ccc(-c3nn([C@H]4CC[C@H](N5CCN(C(=O)N(C)C)CC5)CC4)c4ncnc(N)c34)cc2[nH]1            6.68
4  CCOC(=O)N1CCN([C@H]2CC[C@H](n3nc(-c4ccc5nc(Cc6ccccc6OC)[nH]c5c4)c4c(N)ncnc43)CC2)CC1            6.61
5  COCCCN1CCN([C@H]2CC[C@H](n3nc(-c4ccc5nc(Cc6ccccc6OC)[nH]c5c4)c4c(N)ncnc43)CC2)CC1            6.94

* * *

# study target: Receptor tyrosine-protein kinase erbB-2 (Homo sapiens, UniProt P04626)
# Sequence (P04626 whole entry): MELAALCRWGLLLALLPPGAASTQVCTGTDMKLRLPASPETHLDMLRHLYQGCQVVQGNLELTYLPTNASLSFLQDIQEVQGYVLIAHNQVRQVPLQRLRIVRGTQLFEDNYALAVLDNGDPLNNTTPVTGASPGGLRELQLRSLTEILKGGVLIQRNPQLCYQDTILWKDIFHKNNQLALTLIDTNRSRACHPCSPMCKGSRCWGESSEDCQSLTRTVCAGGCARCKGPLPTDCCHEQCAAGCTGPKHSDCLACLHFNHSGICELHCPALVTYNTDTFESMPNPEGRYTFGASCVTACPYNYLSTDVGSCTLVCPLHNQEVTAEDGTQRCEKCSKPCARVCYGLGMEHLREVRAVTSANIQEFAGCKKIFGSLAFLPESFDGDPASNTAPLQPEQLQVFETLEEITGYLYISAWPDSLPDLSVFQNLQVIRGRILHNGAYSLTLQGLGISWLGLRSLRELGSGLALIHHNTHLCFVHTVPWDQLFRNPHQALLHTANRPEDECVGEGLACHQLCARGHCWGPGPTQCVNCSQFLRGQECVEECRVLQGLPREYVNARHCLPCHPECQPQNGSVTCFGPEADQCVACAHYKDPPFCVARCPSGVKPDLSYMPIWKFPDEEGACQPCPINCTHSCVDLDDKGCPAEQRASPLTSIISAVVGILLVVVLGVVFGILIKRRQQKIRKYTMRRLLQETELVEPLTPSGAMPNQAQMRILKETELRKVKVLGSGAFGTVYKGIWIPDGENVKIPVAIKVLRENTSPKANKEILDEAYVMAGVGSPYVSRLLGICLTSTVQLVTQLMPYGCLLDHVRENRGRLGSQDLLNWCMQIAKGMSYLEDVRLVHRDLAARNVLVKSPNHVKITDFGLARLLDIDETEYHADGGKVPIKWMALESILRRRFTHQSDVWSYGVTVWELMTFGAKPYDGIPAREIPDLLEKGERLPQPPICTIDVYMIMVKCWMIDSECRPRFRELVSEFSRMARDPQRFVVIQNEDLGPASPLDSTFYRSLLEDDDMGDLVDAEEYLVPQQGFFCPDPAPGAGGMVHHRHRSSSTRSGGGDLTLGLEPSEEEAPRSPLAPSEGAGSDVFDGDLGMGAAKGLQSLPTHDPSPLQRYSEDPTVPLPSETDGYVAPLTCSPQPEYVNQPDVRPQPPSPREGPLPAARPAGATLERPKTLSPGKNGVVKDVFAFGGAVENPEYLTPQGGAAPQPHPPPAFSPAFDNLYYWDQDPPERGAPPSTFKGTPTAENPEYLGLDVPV
pIC50: −log10 of the molar value.
endpoint: pIC50

>>> df
                                smiles_data                              study_target  endpoint  observed_value
0  CCOC(=O)N1CCN([C@H]2CC[C@H](n3nc(-c4ccc5nc(Cc6ccccc6OC)[nH]c5c4)c4c(N)ncnc43)CC2)CC1  Receptor tyrosine-protein kinase erbB-2 (Homo sapiens, UniProt P04626)     pIC50            6.57
1  COc1ccccc1Cc1nc2ccc(-c3nn([C@H]4CC[C@H](N5CCN(CC6CC6)CC5)CC4)c4ncnc(N)c34)cc2[nH]1  Receptor tyrosine-protein kinase erbB-2 (Homo sapiens, UniProt P04626)     pIC50            7.89
2  COc1ccccc1Cc1nc2ccc(-c3nn([C@H]4CC[C@H](N5CCNCC5)CC4)c4ncnc(N)c34)cc2[nH]1  Receptor tyrosine-protein kinase erbB-2 (Homo sapiens, UniProt P04626)     pIC50            7.36
3  COc1ccccc1Cc1nc2ccc(-c3nn([C@H]4CC[C@H](N5CCOCC5)CC4)c4ncnc(N)c34)cc2[nH]1  Receptor tyrosine-protein kinase erbB-2 (Homo sapiens, UniProt P04626)     pIC50            7.28
4  Nc1ncnc2c1c(-c1ccc3nc(Cc4ccccc4)[nH]c3c1)nn2[C@H]1CC[C@H](N2CCOCC2)CC1  Receptor tyrosine-protein kinase erbB-2 (Homo sapiens, UniProt P04626)     pIC50            6.73
5  COc1ccccc1Cc1nc2ccc(-c3nn([C@H]4CC[C@H](N5CCN(C(C)=O)CC5)CC4)c4ncnc(N)c34)cc2[nH]1  Receptor tyrosine-protein kinase erbB-2 (Homo sapiens, UniProt P04626)     pIC50            7.23
6  COCCCN1CCN([C@H]2CC[C@H](n3nc(-c4ccc5nc(Cc6ccccc6OC)[nH]c5c4)c4c(N)ncnc43)CC2)CC1  Receptor tyrosine-protein kinase erbB-2 (Homo sapiens, UniProt P04626)     pIC50            7.27

* * *

# experiment description: Bioavailability in ip dosed mouse
# Assay type: ADME, organism-based
# conditions used: in vivo
endpoint: bioavailability (%)

>>> print(df.to_string())
                                smiles_data         endpoint  observed_value
0  COCCCN1CCN([C@H]2CC[C@H](n3nc(-c4ccc5nc(Cc6ccccc6OC)[nH]c5c4)c4c(N)ncnc43)CC2)CC1  bioavailability             100
